tested on: Staphylococcus aureus; test: Antibacterial activity against methicillin-resistant Staphylococcus aureus N315 after 24 hrs by two fold serial dilution method; format: functional; conditions: N315, 24 h
OBSERVATION_TYPE: MIC (µg/mL)

record_smiles=C#CCn1cc(-c2cnc(N)s2)c(=O)c2cc(F)cc(F)c21 recorded_number=8
record_smiles=O=C(N[C@H](CO)[C@H](O)c1ccc([N+](=O)[O-])cc1)C(Cl)Cl recorded_number=16
record_smiles=CCCCCCCCCCn1cc(-c2cnc(N)s2)c(=O)c2cc(F)cc(F)c21 recorded_number=256
record_smiles=CCCn1cc(-c2cnc(N)s2)c(=O)c2cc(F)cc(F)c21 recorded_number=32
record_smiles=CCCCCCCn1cc(-c2cnc(N)s2)c(=O)c2cc(F)cc(F)c21 recorded_number=128
record_smiles=Nc1ncc(-c2cn(Cc3ccccc3Cl)c3c(F)cc(F)cc3c2=O)s1 recorded_number=64
record_smiles=CCCCCCCCCCCCn1cc(-c2cnc(N)s2)c(=O)c2cc(F)cc(F)c21 recorded_number=128
record_smiles=CCCCCn1cc(-c2cnc(N)s2)c(=O)c2cc(F)cc(F)c21 recorded_number=32
record_smiles=Nc1ncc(-c2cn(Cc3ccc(Cl)cc3)c3c(F)cc(F)cc3c2=O)s1 recorded_number=64
record_smiles=Nc1ncc(-c2cn(Cc3ccccc3F)c3c(F)cc(F)cc3c2=O)s1 recorded_number=64
record_smiles=COc1ccc(Cn2cc(-c3cnc(N)s3)c(=O)c3cc(F)cc(F)c32)cc1 recorded_number=256
record_smiles=Nc1ncc(-c2cn(Cc3cccc(F)c3)c3c(F)cc(F)cc3c2=O)s1 recorded_number=32
record_smiles=Nc1ncc(-c2cn(Cc3ccc([N+](=O)[O-])cc3)c3c(F)cc(F)cc3c2=O)s1 recorded_number=128
record_smiles=Nc1ncc(-c2cn(Cc3ccc(F)cc3)c3c(F)cc(F)cc3c2=O)s1 recorded_number=16
record_smiles=CCn1cc(C(=O)O)c(=O)c2cc(F)c(N3CCNCC3)cc21 recorded_number=8
record_smiles=Nc1ncc(-c2cn(Cc3cccc(Cl)c3)c3c(F)cc(F)cc3c2=O)s1 recorded_number=128

====

test system: Aspergillus flavus; experiment: Antifungal activity against Aspergillus flavus after 24 hrs by two fold serial dilution method; type: functional
Assign labels as follows, please: 1.0 for MIC80 below 60 mg/L; 0.0 for MIC80 equal to or exceeding 60 mg/L.

compound=Nc1ncc(-c2cn(Cc3cccc(F)c3)c3c(F)cc(F)cc3c2=O)s1 class_label=0.0
compound=Nc1ncc(-c2cn(Cc3ccc([N+](=O)[O-])cc3)c3c(F)cc(F)cc3c2=O)s1 class_label=0.0
compound=Nc1ncc(-c2cn(Cc3cccc(Cl)c3)c3c(F)cc(F)cc3c2=O)s1 class_label=0.0
compound=CCCCCCCn1cc(-c2cnc(N)s2)c(=O)c2cc(F)cc(F)c21 class_label=0.0
compound=COc1ccc(Cn2cc(-c3cnc(N)s3)c(=O)c3cc(F)cc(F)c32)cc1 class_label=0.0
compound=CCCn1cc(-c2cnc(N)s2)c(=O)c2cc(F)cc(F)c21 class_label=1.0
compound=C#CCn1cc(-c2cnc(N)s2)c(=O)c2cc(F)cc(F)c21 class_label=1.0
compound=CCCCCCCCCCn1cc(-c2cnc(N)s2)c(=O)c2cc(F)cc(F)c21 class_label=0.0
compound=Nc1ncc(-c2cn(Cc3ccccc3Cl)c3c(F)cc(F)cc3c2=O)s1 class_label=0.0
compound=Nc1ncc(-c2cn(Cc3ccc(Cl)cc3)c3c(F)cc(F)cc3c2=O)s1 class_label=0.0
compound=CCCCCn1cc(-c2cnc(N)s2)c(=O)c2cc(F)cc(F)c21 class_label=1.0
compound=Nc1ncc(-c2cn(Cc3ccccc3F)c3c(F)cc(F)cc3c2=O)s1 class_label=1.0
compound="OC(Cn1cncn1)(Cn1cncn1)c1ccc(F)cc1F [FLUCONAZOLE]" class_label=0.0
compound=CCCCCCCCCCCCn1cc(-c2cnc(N)s2)c(=O)c2cc(F)cc(F)c21 class_label=0.0
compound=Nc1ncc(-c2cn(Cc3ccc(F)cc3)c3c(F)cc(F)cc3c2=O)s1 class_label=1.0

====

tested on: Staphylococcus aureus; assay: Antibacterial activity against Staphylococcus aureus ATCC 25923 after 24 hrs by two fold serial dilution method; format: functional; conditions: ATCC 25923, 24 h
OBSERVATION_TYPE: log10(MIC) (log10 of the value in µg/mL)

record_smiles=O=C(N[C@H](CO)[C@H](O)c1ccc([N+](=O)[O-])cc1)C(Cl)Cl measured_target="Staphylococcus aureus" observation_type=log10(MIC) recorded_number=1.20
record_smiles=COc1ccc(Cn2cc(-c3cnc(N)s3)c(=O)c3cc(F)cc(F)c32)cc1 measured_target="Staphylococcus aureus" observation_type=log10(MIC) recorded_number=2.41
record_smiles=Nc1ncc(-c2cn(Cc3cccc(Cl)c3)c3c(F)cc(F)cc3c2=O)s1 measured_target="Staphylococcus aureus" observation_type=log10(MIC) recorded_number=1.81
record_smiles=Nc1ncc(-c2cn(Cc3ccc(Cl)cc3)c3c(F)cc(F)cc3c2=O)s1 measured_target="Staphylococcus aureus" observation_type=log10(MIC) recorded_number=2.11
record_smiles=Nc1ncc(-c2cn(Cc3ccccc3Cl)c3c(F)cc(F)cc3c2=O)s1 measured_target="Staphylococcus aureus" observation_type=log10(MIC) recorded_number=2.11
record_smiles=Nc1ncc(-c2cn(Cc3ccccc3F)c3c(F)cc(F)cc3c2=O)s1 measured_target="Staphylococcus aureus" observation_type=log10(MIC) recorded_number=1.51
record_smiles=Nc1ncc(-c2cn(Cc3ccc([N+](=O)[O-])cc3)c3c(F)cc(F)cc3c2=O)s1 measured_target="Staphylococcus aureus" observation_type=log10(MIC) recorded_number=2.41
record_smiles=CCCCCCCn1cc(-c2cnc(N)s2)c(=O)c2cc(F)cc(F)c21 measured_target="Staphylococcus aureus" observation_type=log10(MIC) recorded_number=2.41
record_smiles=Nc1ncc(-c2cn(Cc3cccc(F)c3)c3c(F)cc(F)cc3c2=O)s1 measured_target="Staphylococcus aureus" observation_type=log10(MIC) recorded_number=1.81
record_smiles=CCCCCn1cc(-c2cnc(N)s2)c(=O)c2cc(F)cc(F)c21 measured_target="Staphylococcus aureus" observation_type=log10(MIC) recorded_number=2.41
record_smiles=CCCCCCCCCCCCn1cc(-c2cnc(N)s2)c(=O)c2cc(F)cc(F)c21 measured_target="Staphylococcus aureus" observation_type=log10(MIC) recorded_number=2.71
record_smiles=C#CCn1cc(-c2cnc(N)s2)c(=O)c2cc(F)cc(F)c21 measured_target="Staphylococcus aureus" observation_type=log10(MIC) recorded_number=0.90
record_smiles=CCCCCCCCCCn1cc(-c2cnc(N)s2)c(=O)c2cc(F)cc(F)c21 measured_target="Staphylococcus aureus" observation_type=log10(MIC) recorded_number=2.71
record_smiles=CCn1cc(C(=O)O)c(=O)c2cc(F)c(N3CCNCC3)cc21 measured_target="Staphylococcus aureus" observation_type=log10(MIC) recorded_number=0.30
record_smiles=Nc1ncc(-c2cn(Cc3ccc(F)cc3)c3c(F)cc(F)cc3c2=O)s1 measured_target="Staphylococcus aureus" observation_type=log10(MIC) recorded_number=1.51
record_smiles=CCCn1cc(-c2cnc(N)s2)c(=O)c2cc(F)cc(F)c21 measured_target="Staphylococcus aureus" observation_type=log10(MIC) recorded_number=1.20

====

test system: Escherichia coli; experiment: Antibacterial activity against Escherichia coli DH52 after 24 hrs by two fold serial dilution method; assay type: functional; conditions: DH52, 24 h
OBSERVATION_TYPE: MIC (µg/mL)

compound=CCCCCCCCCCCCn1cc(-c2cnc(N)s2)c(=O)c2cc(F)cc(F)c21 unit_abbreviation=µg/mL recorded_number=256
compound=Nc1ncc(-c2cn(Cc3ccccc3F)c3c(F)cc(F)cc3c2=O)s1 unit_abbreviation=µg/mL recorded_number=64
compound=CCCCCn1cc(-c2cnc(N)s2)c(=O)c2cc(F)cc(F)c21 unit_abbreviation=µg/mL recorded_number=32
compound=CCCCCCCn1cc(-c2cnc(N)s2)c(=O)c2cc(F)cc(F)c21 unit_abbreviation=µg/mL recorded_number=32
compound=Nc1ncc(-c2cn(Cc3ccccc3Cl)c3c(F)cc(F)cc3c2=O)s1 unit_abbreviation=µg/mL recorded_number=128
compound=Nc1ncc(-c2cn(Cc3cccc(Cl)c3)c3c(F)cc(F)cc3c2=O)s1 unit_abbreviation=µg/mL recorded_number=32
compound=C#CCn1cc(-c2cnc(N)s2)c(=O)c2cc(F)cc(F)c21 unit_abbreviation=µg/mL recorded_number=16
compound="O=C(N[C@H](CO)[C@H](O)c1ccc([N+](=O)[O-])cc1)C(Cl)Cl [CHLORAMPHENICOL]" unit_abbreviation=µg/mL recorded_number=32
compound=CCCCCCCCCCn1cc(-c2cnc(N)s2)c(=O)c2cc(F)cc(F)c21 unit_abbreviation=µg/mL recorded_number=64
compound=COc1ccc(Cn2cc(-c3cnc(N)s3)c(=O)c3cc(F)cc(F)c32)cc1 unit_abbreviation=µg/mL recorded_number=64
compound=Nc1ncc(-c2cn(Cc3ccc(F)cc3)c3c(F)cc(F)cc3c2=O)s1 unit_abbreviation=µg/mL recorded_number=32
compound=Nc1ncc(-c2cn(Cc3cccc(F)c3)c3c(F)cc(F)cc3c2=O)s1 unit_abbreviation=µg/mL recorded_number=128
compound="CCn1cc(C(=O)O)c(=O)c2cc(F)c(N3CCNCC3)cc21 [NORFLOXACIN]" unit_abbreviation=µg/mL recorded_number=1
compound=Nc1ncc(-c2cn(Cc3ccc([N+](=O)[O-])cc3)c3c(F)cc(F)cc3c2=O)s1 unit_abbreviation=µg/mL recorded_number=32
compound=CCCn1cc(-c2cnc(N)s2)c(=O)c2cc(F)cc(F)c21 unit_abbreviation=µg/mL recorded_number=64
compound=Nc1ncc(-c2cn(Cc3ccc(Cl)cc3)c3c(F)cc(F)cc3c2=O)s1 unit_abbreviation=µg/mL recorded_number=64
